# TGT: insulin receptor (INSr) (Homo sapiens)
# Construct: An assay using the intracellular kinase domains of insulin receptor (INSr)
# Sequence (P06213 1023-1298 limits assumed, species assumed): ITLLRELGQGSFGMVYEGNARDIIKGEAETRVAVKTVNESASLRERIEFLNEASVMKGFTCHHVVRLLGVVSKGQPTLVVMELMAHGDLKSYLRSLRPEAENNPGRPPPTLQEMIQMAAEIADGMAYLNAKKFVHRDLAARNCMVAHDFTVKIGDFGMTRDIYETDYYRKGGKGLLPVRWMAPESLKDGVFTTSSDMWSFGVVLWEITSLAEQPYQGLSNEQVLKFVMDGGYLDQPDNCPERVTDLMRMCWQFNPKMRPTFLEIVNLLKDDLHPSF
# PROCEDURE_DETAILS: Insulin receptor (INSr) kinase assay
# CONDITION_PARAMETERS: 10 mM manganese chloride
Parameter: IC50. Scope: all listed entries.

GIVEN_SMILES | QUANTITY_KIND | OBSERVED_VALUE
CN1CCN(CCCNc2cc3c(cn2)cc(-c2c(Cl)cccc2Cl)c(=O)n3C)CC1 | IC50 | > 50 µM

-- ask Return the recorded IC50 value; entry: `CN(C)c1cc2c(cn1)cc(-c1c(Cl)cccc1Cl)c(=O)n2C`
-- reply > 50 µM

-- ask Return the recorded IC50 value; entry: `CCN(CC)CCOc1ccc(Nc2cc3c(cn2)cc(-c2c(Cl)cccc2Cl)c(=O)n3C)cc1`
-- reply > 50 µM

-- ask Return the recorded IC50 value; entry: `CCN(CC)CCCCNc1cc2c(cn1)cc(-c1c(Cl)cccc1Cl)c(=O)n2C`
-- reply > 50 µM

----------
Parameter: IC50. Scope: all listed entries.
# TGT: cdk1/cyclinB (Homo sapiens, UniProt P06493)
# Sequence (P06493 whole entry, species assumed): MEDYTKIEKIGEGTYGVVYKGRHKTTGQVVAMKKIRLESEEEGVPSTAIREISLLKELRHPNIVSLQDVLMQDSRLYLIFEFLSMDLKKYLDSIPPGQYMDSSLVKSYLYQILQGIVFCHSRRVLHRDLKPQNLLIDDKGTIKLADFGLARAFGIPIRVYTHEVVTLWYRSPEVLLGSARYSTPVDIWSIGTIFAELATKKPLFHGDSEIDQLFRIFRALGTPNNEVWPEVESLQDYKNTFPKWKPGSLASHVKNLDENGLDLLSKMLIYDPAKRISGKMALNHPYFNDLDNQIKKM
# Sequence (P14635 whole entry partner, species assumed): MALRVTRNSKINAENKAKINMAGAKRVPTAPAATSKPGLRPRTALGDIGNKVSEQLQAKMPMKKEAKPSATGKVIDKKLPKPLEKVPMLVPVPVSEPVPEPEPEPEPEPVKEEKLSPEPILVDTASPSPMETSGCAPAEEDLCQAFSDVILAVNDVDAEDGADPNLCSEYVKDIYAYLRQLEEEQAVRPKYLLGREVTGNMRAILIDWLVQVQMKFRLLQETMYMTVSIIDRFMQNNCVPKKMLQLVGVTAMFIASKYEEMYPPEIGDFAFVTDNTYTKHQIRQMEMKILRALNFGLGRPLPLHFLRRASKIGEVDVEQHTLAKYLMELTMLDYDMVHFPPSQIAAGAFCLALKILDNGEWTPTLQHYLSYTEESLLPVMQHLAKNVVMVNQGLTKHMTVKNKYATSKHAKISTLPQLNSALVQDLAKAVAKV
# PROCEDURE_DETAILS: Cyclin-Dependent Kinase Assay, cdk1/cyclinB
# CONDITION_PARAMETERS: 12 mM ATP, retinoblastoma substrate
Provide only the numeric value, understood in nM.

Please review the following examples before continuing.
GIVEN_SMILES | TGT | IC50, nM
CCn1c(=O)ccc2cnc(Nc3ccc(N4CCN(C)CC4)cc3)cc21 | cdk1/cyclinB (Homo sapiens, UniProt P06493) | 7400
CCn1c(=O)ccc2cnc(Nc3ccc(N4CCOCC4)cc3)cc21 | cdk1/cyclinB (Homo sapiens, UniProt P06493) | 4000
CCn1c(=O)ccc2cnc(Nc3ccc(OC)cc3)cc21 | cdk1/cyclinB (Homo sapiens, UniProt P06493) | 1500

-- ask Provide the reported IC50 (system: cdk1/cyclinB (Homo sapiens, UniProt P06493)) for `CCn1c(=O)ccc2cnc(Nc3ccccc3)cc21`
-- reply 1900

----------
# TGT: PDGF receptor (Rattus norvegicus, UniProt Q05030)
# Construct: endogenous in cells
# Sequence (Q05030 32-1097): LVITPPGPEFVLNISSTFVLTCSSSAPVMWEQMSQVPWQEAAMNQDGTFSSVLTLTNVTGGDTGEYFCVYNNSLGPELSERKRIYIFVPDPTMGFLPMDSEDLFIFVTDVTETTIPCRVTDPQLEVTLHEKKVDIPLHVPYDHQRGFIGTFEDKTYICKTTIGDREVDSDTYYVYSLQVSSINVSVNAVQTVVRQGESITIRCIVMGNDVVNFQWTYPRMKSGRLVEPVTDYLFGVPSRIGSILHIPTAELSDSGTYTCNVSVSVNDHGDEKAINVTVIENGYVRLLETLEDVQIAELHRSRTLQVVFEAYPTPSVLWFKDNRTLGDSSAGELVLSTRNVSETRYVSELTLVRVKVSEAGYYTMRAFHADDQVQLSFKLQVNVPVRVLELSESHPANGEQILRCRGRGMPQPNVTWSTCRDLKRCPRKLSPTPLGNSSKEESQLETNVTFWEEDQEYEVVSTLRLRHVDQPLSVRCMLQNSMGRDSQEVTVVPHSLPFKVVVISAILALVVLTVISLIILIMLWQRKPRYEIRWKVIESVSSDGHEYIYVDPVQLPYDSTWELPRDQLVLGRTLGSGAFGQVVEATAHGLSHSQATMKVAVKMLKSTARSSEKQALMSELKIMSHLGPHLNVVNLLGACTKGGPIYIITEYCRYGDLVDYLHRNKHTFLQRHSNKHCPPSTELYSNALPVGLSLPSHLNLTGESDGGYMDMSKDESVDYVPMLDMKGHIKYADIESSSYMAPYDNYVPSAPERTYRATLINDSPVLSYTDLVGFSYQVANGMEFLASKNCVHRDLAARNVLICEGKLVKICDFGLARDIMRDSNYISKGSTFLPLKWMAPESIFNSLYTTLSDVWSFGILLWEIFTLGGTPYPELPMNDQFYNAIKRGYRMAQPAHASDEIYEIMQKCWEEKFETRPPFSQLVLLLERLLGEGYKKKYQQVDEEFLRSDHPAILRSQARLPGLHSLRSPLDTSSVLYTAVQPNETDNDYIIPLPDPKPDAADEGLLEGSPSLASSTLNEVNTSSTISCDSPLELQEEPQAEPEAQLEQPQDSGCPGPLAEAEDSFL
# PROCEDURE_DETAILS: PDGF Receptor Autophosphorylation Assay in rat aorta smooth muscle cells
# CONDITION_PARAMETERS: PDGF-BB 30 ng/mL, 5 minutes, 2 hours preincubation, read-out: Inhibition of PDGF-Stimulated Receptor Autophosphorylation IC50
QUANTITY_KIND: IC50 (nM)
Provide only the numeric value, understood in nM.

Please review the following examples before continuing.
COMPOUND | TGT | IC50, nM
CCN(CC)CCCCNc1cc2c(cn1)cc(-c1c(Cl)cccc1Cl)c(=O)n2C [Example F] | PDGF receptor (Rattus norvegicus, UniProt Q05030) | 490
CCN(CC)CCOc1ccc(Nc2cc3c(cn2)cc(-c2c(Cl)cccc2Cl)c(=O)n3C)cc1 [Example P] | PDGF receptor (Rattus norvegicus, UniProt Q05030) | 230

Note: attention shifts to another entry.
-- ask Return the recorded IC50 value; entry: CN1CCN(CCOc2ccc(Nc3cc4c(cn3)cc(-c3c(Cl)cccc3Cl)c(=O)n4C)cc2)CC1 [Example S]
-- reply 810

----------
# Tested on: SW-620 cells
# PROCEDURE_DETAILS: Human Colon Carcinoma Growth Delay Assay, SW-620
# Format: cell-based
# CONDITION_PARAMETERS: 72 h, SW-620, 3 days
QUANTITY_KIND: IC50 (µM)
Provide only the numeric value, understood in µM.

GIVEN_SMILES | IC50, µM
CCN(CC)CCCCNc1cc2c(cn1)cc(-c1c(Cl)cccc1Cl)c(=O)n2C | 7.2
CCN(CC)CCOc1ccc(Nc2cc3c(cn2)cc(-c2c(Cl)cccc2Cl)c(=O)n3C)cc1 | 6.7
CN1CCN(CCCNc2cc3c(cn2)cc(-c2c(Cl)cccc2Cl)c(=O)n3C)CC1 | 5.2

Note: attention shifts to another entry.
-- ask Return the recorded IC50 value; entry: `CN1CCN(CCOc2ccc(Nc3cc4c(cn3)cc(-c3c(Cl)cccc3Cl)c(=O)n4C)cc2)CC1`
-- reply 6.8
